Values compiled from patent US8642799B2.

This document collects IC50 values reported for cruzipain (Trypanosoma cruzi, UniProt P25779).
Please state the number and follow it with the unit.

Here are 2 compounds together with their reported answers.
q: Fill in reported IC50 for this entry: CC(C)[C@H](N[C@@H](c1ccc(-c2ccc(C3(C(=O)O)CC3)cc2)cc1)C(F)(F)F)C(=O)N[C@H](C#N)Cc1ccc(C#N)cc1F [Example 58]
a: 300 pM

q: Give the value of IC50 reported for the following: CC(C)(F)C[C@H](N[C@@H](c1ccc(-c2ccc(S(C)(=O)=O)cc2)cc1)C(F)(F)F)C(=O)NC(C#N)Cc1ccc(C(F)(F)F)cc1F (stereo partly drawn) [Example 33]
a: 3500 pM

Turning to the following compound.
q: Supply measured IC50 of CC(C)(F)C[C@H](N[C@@H](c1ccc(-c2ccc(C3(C(N)=O)CC3)cc2)cc1)C(F)(F)F)C(=O)N[C@H](C#N)Cc1ccc(C#N)cc1F [Example 38] in your reply.
a: 300 pM

----------
- systemTested: UniProt:P25779
Catalogue of pIC50 values
API: returns pIC50 as number; meaning -log10 of concentration in mol/L.

q: For the molecule CS(=O)(=O)c1ccc(-c2ccc([C@H](N[C@@H](CC(Cl)Cl)C(=O)N[C@H](C#N)Cc3ccc(C#N)cc3F)C(F)(F)F)cc2)cc1 [Example 1] , report pIC50.
a: 9.85

***
q: Specify pIC50 for CC(C)(F)C[C@H](N[C@@H](c1ccc(-c2ccc(S(C)(=O)=O)cc2)cc1)C(F)(F)F)C(=O)N[C@H](C#N)Cc1ccccc1F [Example 17] and stop.
a: 9.05

q: Assign pIC50 to the following record: CC(C)[C@H](N[C@@H](c1ccc(-c2ccc([C@@H](O)C(F)F)cc2)cc1)C(F)(F)F)C(=O)N[C@H](C#N)Cc1c(F)cc(C#N)cc1F [Example 73]
a: 9.15

----------
Data export: pIC50 values recorded with cruzipain (Trypanosoma cruzi, UniProt P25779).
Sequence (P25779 123-467): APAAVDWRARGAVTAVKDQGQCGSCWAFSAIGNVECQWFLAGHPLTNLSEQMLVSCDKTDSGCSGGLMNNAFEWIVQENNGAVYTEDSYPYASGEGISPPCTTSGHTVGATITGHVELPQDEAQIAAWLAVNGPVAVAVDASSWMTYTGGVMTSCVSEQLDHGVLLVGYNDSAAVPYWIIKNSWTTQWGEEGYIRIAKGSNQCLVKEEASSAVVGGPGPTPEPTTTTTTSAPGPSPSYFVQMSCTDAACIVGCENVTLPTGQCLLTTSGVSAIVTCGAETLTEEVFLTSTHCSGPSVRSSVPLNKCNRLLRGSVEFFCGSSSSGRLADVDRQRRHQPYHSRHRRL
The value called pIC50 is obtained by taking minus log10 of the concentration in mol/L.

Here are 3 compounds together with their reported answers.
q: State the measured pIC50 (cruzipain (Trypanosoma cruzi, UniProt P25779)) of CC(C)(F)C[C@H](N[C@@H](c1ccc(-c2ccc(S(C)(=O)=O)cc2)cc1)C(F)(F)F)C(=O)N[C@H](C#N)Cc1c(F)cccc1F
a: 8.15

q: Tell me its pIC50 on cruzipain (Trypanosoma cruzi, UniProt P25779): CC(C)(F)C[C@H](N[C@@H](c1ccc(-c2ccc(C3(C(=O)NCC(F)(F)F)CC3)cc2)cc1)C(F)(F)F)C(=O)N[C@H](C#N)Cc1ccccc1
a: 8.03

q: Provide measured pIC50 on cruzipain (Trypanosoma cruzi, UniProt P25779) for CC(C)[C@H](N[C@@H](c1ccc(-c2ccc(S(C)(=O)=O)cc2)cc1)C(F)(F)F)C(=O)N[C@H](C#N)Cc1c(F)cc(Br)cc1F please.
a: 9.22

With those in mind, consider the next compound.
q: # return pIC50 of CC(C)(F)C[C@H](N[C@@H](c1ccc(-c2ccc(S(C)(=O)=O)cc2)cc1)C(F)(F)F)C(=O)N[C@H](C#N)Cc1ccc(-c2cccnc2)cc1 (system: cruzipain (Trypanosoma cruzi, UniProt P25779))
a: 8.15

----------
Test system UniProt:P25779, log10 of IC50 listed for each of the compounds.
All values: log10 IC50 [nM].

Worked set:
q: Report log10 of IC50 from UniProt:P25779 testing of CC(C)(F)C[C@H](N[C@@H](c1ccc(-c2ccc(S(C)(=O)=O)cc2)cc1)C(F)(F)F)C(=O)N[C@H](C#N)Cc1cc[n+]([O-])cc1
a: 2.08

q: # assay system UniProt:P25779: give log10 of IC50 of CC(C)(F)C[C@H](N[C@@H](c1ccc(-c2ccc(C3(C#N)CC3)cc2)cc1)C(F)(F)F)C(=O)N[C@H](C#N)Cc1ccccc1
a: 1.02

q: GET log10 of IC50 | system: UniProt:P25779 | item: CC(C)[C@H](N[C@@H](c1ccc(-c2ccc(C3(C(N)=O)CC3)cc2)cc1)C(F)(F)F)C(=O)N[C@H](C#N)Cc1ccccc1
a: -0.15

q: Find log10 of IC50 for CC(C)(F)C[C@H](N[C@@H](c1ccc(-c2ccc([C@@H](O)C(F)F)cc2)cc1)C(F)(F)F)C(=O)N[C@H](C#N)Cc1ccc(S(C)(=O)=O)cc1 on UniProt:P25779 and write it down.
a: 0.92

q: Name the recorded log10 of IC50 of CC(C)(F)C[C@H](N[C@@H](c1ccc(-c2ccc([C@@H](O)C(F)F)cc2)cc1)C(F)(F)F)C(=O)N[C@H](C#N)Cc1ccc(C#N)cc1F , assay system UniProt:P25779.
a: -0.05

q: Quote log10 of IC50 with test system UniProt:P25779 for CC(C)(F)C[C@H](N[C@@H](c1ccc(-c2ccc(C3(C(=O)NC4CC4)CC3)cc2)cc1)C(F)(F)F)C(=O)N[C@H](C#N)Cc1ccccc1
a: 0.57

q: Look up and report measured log10 of IC50 (UniProt:P25779) for the following compound: CS(=O)(=O)c1ccc(-c2ccc([C@H](N[C@H](C(=O)N[C@H](C#N)Cc3ccc(C#N)cc3F)C3CC3)C(F)(F)F)cc2)cc1
a: 0.64

q: Give measured log10 of IC50 for CC(C)(F)C[C@H](N[C@@H](c1ccc(Br)cc1)C(F)(F)F)C(=O)N[C@H](C#N)Cc1ccc(C#N)cc1F (UniProt:P25779).
a: 0.97

q: // fetch log10 of IC50; item: CC(C)(F)C[C@H](N[C@@H](c1ccc(-c2ccc(S(C)(=O)=O)cc2)cc1)C(F)(F)F)C(=O)NC(C#N)Cc1ccc(F)cc1F (stereo partly drawn) ; system: UniProt:P25779
a: 0.41

q: Look up and report measured log10 of IC50 (UniProt:P25779) for the following compound: CC(C)(F)C[C@H](N[C@@H](c1ccc(-c2ccc(S(C)(=O)=O)cc2)cc1)C(F)(F)F)C(=O)N[C@H](C#N)Cc1cccc[n+]1[O-]
a: 1.18

Others:
q: Recall the reported log10 of IC50 of CC(C)[C@H](N[C@@H](c1ccc(Br)cc1)C(F)(F)F)C(=O)N[C@H](C#N)Cc1ccccc1 on UniProt:P25779 and write it down.
a: 1.02

q: Give log10 of IC50 only, for CC(C)[C@H](N[C@@H](c1ccc(-c2ccncc2)cc1)C(F)(F)F)C(=O)N[C@H](C#N)Cc1ccccc1 , using UniProt:P25779 data.
a: 0.75

----------
- systemTested: UniProt P25779
measuredProperty: log10 of IC50 (log10 of the value in nM)
Scale: log10; quantity: IC50; unit before log: nM

q: Please give measured log10 of IC50 of the following entry: CC(C)(F)C[C@H](N[C@@H](c1ccc(-c2ccc(S(C)(=O)=O)cc2)cc1)C(F)(F)F)C(=O)N[C@H](C#N)Cc1ccc(Cl)cc1Cl
a: 0.11

q: // fetch log10 of IC50 given entry C[S+]([O-])c1ccc(-c2ccc([C@H](N[C@@H](CC(C)(C)F)C(=O)N[C@H](C#N)Cc3ccc(C#N)cc3F)C(F)(F)F)cc2)cc1 (stereo partly drawn)
a: -0.12

q: Consider the molecule CC(C)(F)C[C@H](N[C@@H](c1ccc(-c2ccc(-c3cc[n+]([O-])cc3)cc2)cc1)C(F)(F)F)C(=O)N[C@H](C#N)Cc1ccccc1 and give its recorded log10 of IC50.
a: 0.89

q: Output measured log10 of IC50 for this item: COC(=O)CNC(=O)C1(c2ccc(-c3ccc([C@H](N[C@@H](CC(C)(C)F)C(=O)N[C@H](C#N)Cc4ccccc4)C(F)(F)F)cc3)cc2)CC1
a: 0.49

q: Report log10 of IC50 for CC(C)[C@H](N[C@@H](c1ccc(-c2ccc(N3CCNCC3)cc2)cc1)C(F)(F)F)C(=O)N[C@H](C#N)Cc1ccccc1
a: -1.00

q: Quote log10 of IC50 reported for CC(C)(F)C[C@H](N[C@@H](c1ccc(-c2ccc(C3(C(=O)NCCO)CC3)cc2)cc1)C(F)(F)F)C(=O)N[C@H](C#N)Cc1ccccc1 please.
a: 0.45

q: Identify log10 of IC50 associated with the molecule CC(C)[C@H](N[C@@H](c1ccc(-c2ccc([C@@H](O)C(F)F)cc2)cc1)C(F)(F)F)C(=O)N[C@H](C#N)Cc1c(F)cc(Br)cc1F
a: 0.32

q: Give log10 of IC50 for the following molecule: CCOC(=O)c1ccc(C[C@@H](C#N)NC(=O)[C@H](CC(C)(C)F)N[C@@H](c2ccc(-c3ccc(S(C)(=O)=O)cc3)cc2)C(F)(F)F)cc1
a: 0.64

q: Give recorded log10 of IC50. CC(C)(F)C[C@H](N[C@@H](c1ccc(-c2ccc(S(C)(=O)=O)cc2)cc1)C(F)(F)F)C(=O)N[C@H](C#N)Cc1c(F)cc(C#N)cc1F
a: -0.05

q: Answer with the recorded log10 of IC50 of CC(C)(F)C[C@H](N[C@@H](c1ccc(-c2ccc(S(C)(=O)=O)cc2)cc1)C(F)(F)F)C(=O)N[C@H](C#N)Cc1ccc(C(F)(F)F)cc1 only.
a: 1.09

q: Dear colleague, please send me the reported log10 of IC50 for Cn1cccc1-c1ccc([C@H](N[C@@H](CC(C)(C)F)C(=O)N[C@H](C#N)Cc2ccccc2)C(F)(F)F)cc1 when you can.
a: 1.09

q: State its log10 of IC50 for this molecule: CC(C)(F)C[C@H](N[C@@H](c1ccc(-c2ccc(S(C)(=O)=O)cc2)cc1)C(F)(F)F)C(=O)N[C@H](C#N)Cc1ccc(F)cc1
a: 0.79
